# assayNotes: in vitro
measuredEndpoint: CC50 at 4 h (µM)
I only need the number, in µM, no unit after it.

Observe how each entry below is paired with its result.
- OC1(c2ccc(Cl)cc2)CCN(CCCNCc2ccccc2)CC1 [UCSF55]: 60
- OC1(c2ccc(Cl)cc2)CCN(CCCC(O)(c2ccccc2)c2ccccc2-c2ccccc2)CC1 (stereo not drawn) [UCSF56]: 20
- OC1(c2ccc(Cl)cc2)CCN(CCCC2(c3cccc(-c4ccccc4)c3)SCCS2)CC1 [UCSF59]: 45
- COCCN(CCN1CCC(O)(c2ccc(Cl)cc2)CC1)Cc1ccccc1 [UCSF58]: 110

// next entry
(Q) // query CC50 at 4 h value for entry OC1(c2ccc(Cl)cc2)CCN(CCCC(O)(c2ccccc2)c2cccc(-c3ccccc3)c2)CC1 (stereo not drawn) [UCSF57]
(A) 25
